Source of measurements: the supplement of paper PMC10567573

B1: NCK2 (parent)
chain: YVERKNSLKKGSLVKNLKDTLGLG

variants of: B1; assay: protein stability index of a GFP-peptide fusion (GPS, HEK-293T) (PSI 1-6); higher = more stable; settings: c terminus: a fixed tail appended;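 also: lentivirally expressed fusions sorted by FACS into six bins by GFP to DsRed ratio, PSI derived from sequencing read proportions per bin multiplied by bin number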
Y means recorded protein stability index is 2 or above; N means it is below 2.

* YVERKNSLKKGSLVVNLKDTLGLG [K15V] | N
* YVERKNSLKKGSLVKNLKDLLGLG [T20L] | Y
* YVERKNSLKKGSLVKNLKDQLGLG [T20Q] | Y

Continue with the variant presented below.
Query block: Evaluate YVERKNSLKKGSLVKNLKDTLGCG [L23C] : protein stability index at minimum 2?
Result block: Y
